Entries and their Emax
Target: Full-length glucokinase (beta cell isoform) (Homo sapiens, UniProt P35557)
Construct: Full-length glucokinase (beta cell isoform) was His-tagged at N-terminus; His tag (N); made in house
Test: Glucokinase biochemical assay (PK/LDH-coupled, NADH depletion at 340 nm): % activation, EC50, % max activation
Settings: 5 mM glucose; fitted maximum activation; read-out: % Max Activation
Protocol: Full-length glucokinase (beta cell isoform) was His-tagged at N-terminus and purified by a Ni column followed by size exclusion chromatography. Glucose was obtained from Calbiochem, and other reagents were from Sigma. […] Glucokinase was added to the buffer mixture to initiate the reaction in the presence and absence of compound. Reaction was monitored by absorbance at 340nm due to the depletion of NADH. The initial reaction velocity was measured by the slope of a linear time course of 200-900 sec. […]
Entry rule: numbers only, all in %.

{"columns": ["COMPOUND", "TARGET OR SYSTEM", "Emax, %"],
 "data": [
  ["CO[C@@H]1CCN(C(=O)c2ccc(Oc3cc(C(=O)Nc4ccn(C)n4)cc4c3CC(C)(C)O4)cc2F)C1", "Full-length glucokinase (beta cell isoform) (Homo sapiens, UniProt P35557)", 168],
  ["Cc1cc2c(Oc3ccc(S(=O)(=O)N4CCC4)cc3)cc(C(=O)Nc3ccn(C)n3)cc2o1", "Full-length glucokinase (beta cell isoform) (Homo sapiens, UniProt P35557)", 132],
  ["Cn1ccc(NC(=O)c2cc(Oc3ccc(C(=O)N4CCCC4)cc3)c3c(c2)OC(C)(C)C3)n1", "Full-length glucokinase (beta cell isoform) (Homo sapiens, UniProt P35557)", 114],
  ["CN(C)C(=O)c1ccc(Oc2cc(C(=O)Nc3ccn(C)n3)cc3c2CC(C)(CO)O3)cc1F (stereo not shown)", "Full-length glucokinase (beta cell isoform) (Homo sapiens, UniProt P35557)", 97],
  ["Cn1ccc(NC(=O)c2cc3c(c(Oc4ccc(S(C)(=O)=O)cc4)c2F)CC(C)(C)O3)n1", "Full-length glucokinase (beta cell isoform) (Homo sapiens, UniProt P35557)", 285]
]}

Memo: COC(C)CCOc1cc(C(=O)Nc2ccn(C)n2)cc2c1CC(C)(C)O2 (stereo not shown) , reported Emax: 125

Memo: Cn1ncc(NC(=O)c2cc(Oc3ccc(C#N)c(F)c3)c3c(c2)OC(C)(C)C3)n1 , reported Emax: 251

Memo: Cc1cc2cc(C(=O)Nc3ccn(C)n3)cc(Oc3ccc(S(C)(=O)=O)cc3)c2s1 , reported Emax: 162

Memo: Cc1ccc(NC(=O)c2cc(Oc3ccc(S(C)(=O)=O)cc3)cc3c2CC(C)O3)nc1 (stereo not shown) , reported Emax: 152

Memo: CC(C)COc1cc(C(=O)Nc2ccc(C(=O)O)cn2)cc2c1CC(C)(C)O2 , reported Emax: 115

Memo: CC(Oc1cc(C(=O)Nc2ccn(C)n2)cc2c1CC(C)(C)O2)c1cnccn1 (stereo not shown) , reported Emax: 135

Memo: Cc1cc2cc(C(=O)Nc3ccn(C)n3)cc(Oc3ccc(C(=O)N(C)C)cc3)c2s1 , reported Emax: 56

Memo: COCc1cc2c(Oc3ccc(S(C)(=O)=O)cc3)cc(C(=O)Nc3cnc(N(C)C)cn3)cc2o1 , reported Emax: 114

Memo: CNC(=O)c1ccc(Oc2cc(C(=O)Nc3ccn(C)n3)cc3c2CC(C)(C)O3)cc1F , reported Emax: 129

Memo: CCc1nnc(NC(=O)c2cc(Oc3ccc(S(C)(=O)=O)cc3)c3c(c2)OC(C)(C)C3)s1 , reported Emax: 112

Memo: C=C(C)c1cc2c(C(=O)Nc3ccc(C)cn3)cc(OC(C)C)cc2o1 , reported Emax: 89

====

Molecular target: Full-length glucokinase (beta cell isoform) (Homo sapiens, UniProt P35557)
Construct: Full-length glucokinase (beta cell isoform) was His-tagged at N-terminus; His tag (N); made in house
Sequence (P35557 1-465): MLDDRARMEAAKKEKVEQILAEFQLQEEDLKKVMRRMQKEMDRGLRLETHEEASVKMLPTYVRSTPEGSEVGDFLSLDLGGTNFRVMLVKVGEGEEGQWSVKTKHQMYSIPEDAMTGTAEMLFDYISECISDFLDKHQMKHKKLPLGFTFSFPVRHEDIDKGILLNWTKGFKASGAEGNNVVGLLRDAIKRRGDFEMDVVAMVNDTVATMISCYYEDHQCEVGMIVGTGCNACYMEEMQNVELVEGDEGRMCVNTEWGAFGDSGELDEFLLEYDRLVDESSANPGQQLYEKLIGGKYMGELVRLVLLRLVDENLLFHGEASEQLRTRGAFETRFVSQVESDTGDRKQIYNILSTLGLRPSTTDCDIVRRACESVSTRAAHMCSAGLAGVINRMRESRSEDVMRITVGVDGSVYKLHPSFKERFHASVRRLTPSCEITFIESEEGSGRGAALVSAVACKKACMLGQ
Experiment: Glucokinase biochemical assay (PK/LDH-coupled, NADH depletion at 340 nm): % activation, EC50, % max activation
Conditions: 5 mM glucose; fitted maximum activation; read-out: % Max Activation
Method: Full-length glucokinase (beta cell isoform) was His-tagged at N-terminus and purified by a Ni column followed by size exclusion chromatography. Glucose was obtained from Calbiochem, and other reagents were from Sigma. […] Glucokinase was added to the buffer mixture to initiate the reaction in the presence and absence of compound. Reaction was monitored by absorbance at 340nm due to the depletion of NADH. The initial reaction velocity was measured by the slope of a linear time course of 200-900 sec. […]
PARAMETER MEASURED: Emax (%)
Entry rule: numbers only, all in %.

{"columns": ["COMPOUND", "TARGET OR SYSTEM", "UNIT ABBREVIATION", "ASSAY RESULT"],
 "data": [
  ["Cn1ccc(NC(=O)c2cc(Oc3ccc(S(C)(=O)=O)cc3)c3c(c2)OC(C)(CF)C3)n1 (centres unmarked)", "Full-length glucokinase (beta cell isoform) (Homo sapiens, UniProt P35557)", "%", 169]
]}

The recorded Emax with Full-length glucokinase (beta cell isoform) (Homo sapiens, UniProt P35557) for CN(C)C(=O)c1ccc(Oc2cc(C(=O)Nc3ccn(C)n3)cc3c2CC(C)(C)O3)c(F)c1 was 138

The recorded Emax with Full-length glucokinase (beta cell isoform) (Homo sapiens, UniProt P35557) for CC(Oc1cc(C(=O)Nc2ccn(C)n2)cc2c1CC(C)(C)O2)c1ccccn1 (centres unmarked) was 148

The recorded Emax with Full-length glucokinase (beta cell isoform) (Homo sapiens, UniProt P35557) for CN(C)C(=O)c1ccc(Oc2cc(C(=O)Nc3ccn(C)n3)cc3c2CC(C)(C)O3)cc1F was 101

The recorded Emax with Full-length glucokinase (beta cell isoform) (Homo sapiens, UniProt P35557) for CN(C)C(=O)c1ccc(Oc2cc(C(=O)Nc3ccn(C)n3)cc3c2CC(C)(C)O3)cc1 was 104

The recorded Emax with Full-length glucokinase (beta cell isoform) (Homo sapiens, UniProt P35557) for Cn1ccc(NC(=O)c2cc(OCc3ccccc3)c3c(c2)OC(C)(C)C3)n1 was 176

The recorded Emax with Full-length glucokinase (beta cell isoform) (Homo sapiens, UniProt P35557) for Cn1ccc(NC(=O)c2cc(Oc3ccc(C(=O)N4CCC4)cc3)c3c(c2F)OC(C)(C)C3)n1 was 119

The recorded Emax with Full-length glucokinase (beta cell isoform) (Homo sapiens, UniProt P35557) for Cn1ccc(NC(=O)c2cc(Oc3ccc(C(=O)NCCF)c(F)c3)c3c(c2)OC(C)(C)C3)n1 was 189

====

Target: Full-length glucokinase (beta cell isoform) (Homo sapiens, UniProt P35557)
Construct: Full-length glucokinase (beta cell isoform) was His-tagged at N-terminus; His tag (N); made in house
Sequence (P35557 1-465): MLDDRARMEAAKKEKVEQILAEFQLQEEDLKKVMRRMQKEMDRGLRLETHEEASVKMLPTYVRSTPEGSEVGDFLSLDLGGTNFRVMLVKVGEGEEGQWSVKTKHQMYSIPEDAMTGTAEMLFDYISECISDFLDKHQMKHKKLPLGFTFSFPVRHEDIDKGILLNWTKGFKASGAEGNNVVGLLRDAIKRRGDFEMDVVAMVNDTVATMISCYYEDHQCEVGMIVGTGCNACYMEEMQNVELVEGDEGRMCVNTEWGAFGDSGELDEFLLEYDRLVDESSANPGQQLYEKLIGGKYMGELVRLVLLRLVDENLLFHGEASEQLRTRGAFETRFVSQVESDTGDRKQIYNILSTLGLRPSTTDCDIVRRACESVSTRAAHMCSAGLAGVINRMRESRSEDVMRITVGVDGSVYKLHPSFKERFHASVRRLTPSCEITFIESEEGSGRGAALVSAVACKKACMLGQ
Assay: Glucokinase biochemical assay (PK/LDH-coupled, NADH depletion at 340 nm): % activation, EC50, % max activation
Conditions: 5 mM glucose; fitted maximum activation; read-out: % Max Activation
Entries and their Emax
Entry rule: numbers only, all in %.

Past entries and their recorded results:
{"columns": ["MOLECULE", "Emax, %"],
 "data": [
  ["Cn1ccc(NC(=O)c2cc(Oc3ccc(S(C)(=O)=O)cc3)c3c(c2)OC(CO)C3)n1 (stereo not shown) [Example 200]", 147],
  ["COCC1(C)Cc2c(Oc3ccc(S(C)(=O)=O)cc3)cc(C(=O)Nc3ccn(C)n3)cc2O1 (stereo not shown) [Example 228]", 156],
  ["Cc1ccc(NC(=O)c2cc(Oc3ccc(S(C)(=O)=O)cc3F)c3c(c2)OC(C)(C)C3)nc1 [Example 120]", 79],
  ["Cc1ccc(NC(=O)c2cc(Oc3ccc(S(C)(=O)=O)cc3)c3oc(C)nc3c2)nc1 [Example 369]", 66],
  ["Cc1cc2c(Oc3ccc(S(C)(=O)=O)cc3)cc(C(=O)Nc3ccc(CO)cn3)cc2o1 [Example 266]", 91],
  ["Cc1noc(COc2cc(C(=O)Nc3ccn(C)n3)cc3c2CC(C)(C)O3)n1 [Example 94]", 140],
  ["Cc1ccc(NC(=O)c2cc(Oc3ccc(S(C)(=O)=O)cc3)c3cc(C(=O)N(C)C)oc3c2)nc1 [Example 285]", 118],
  ["COc1ccnc(NC(=O)c2cc(Oc3ccc(S(=O)(=O)N4CCC4)cc3)c3cc(C)oc3c2)c1 [Example 295]", 50],
  ["Cn1ncc(NC(=O)c2cc(Oc3ccc(C(=O)N4CCC4)nc3)c3c(c2)OC(C)(C)C3)n1 [Example 169]", 141],
  ["Cc1ccc(NC(=O)c2cc(Oc3ccc(S(C)(=O)=O)cc3)cc3occc23)nc1 [Example 7]", 129]
]}

Memo: Cn1ncc(NC(=O)c2cc(Oc3ccc(S(=O)(=O)C4CC4)c(F)c3)c3c(c2)OC(C)(C)C3)n1 [Example 140] , reported Emax: 236

Memo: Cn1ccc(NC(=O)c2cc(Oc3ccc(-c4ncon4)c(Cl)c3)c3c(c2)OC(C)(C)C3)n1 [Example 189] , reported Emax: 245

Memo: COc1ccnc(NC(=O)c2cc(Oc3ccc(S(C)(=O)=O)cc3)c3cc(C(=O)N(C)C)oc3c2)c1 [Example 289] , reported Emax: 133

Memo: Cc1ncccc1COc1cc(C(=O)Nc2ccn(C)n2)cc2c1CC(C)(C)O2 [Example 106] , reported Emax: 141

Memo: CO[C@H]1CCN(C(=O)c2ccc(Oc3cc(C(=O)Nc4ccn(C)n4)cc4c3CC(C)(C)O4)cc2F)C1 [Example 60] , reported Emax: 167

Memo: Cn1ccc(NC(=O)c2cc(Oc3ccc(C(=O)N4CCC4)nc3)c3c(c2)OC(C)(C)C3)n1 [Example 167] , reported Emax: 146

All figures here come from patent US8119624B2.
